- System: brain, spinal cord, and DRG of the NHPs
- PROTOCOL TEXT: NGS fold enrichment of synthetic library (passage 3) in NHPs, first cross-species screen
- Format: in vivo, cynomolgus macaques (Macaca fascicularis)
- TEST SETTINGS: synthetic library passage 3, intravenous, RNA NGS, spinal cord of NHPs, relative to wild-type AAV9
Quick list: Fold enrichment over AAV9 in the spinal cord of NHPs per entry.
Note: unit fold is implicit; provide only the numeric part.

Known Fold enrichment over AAV9 in the spinal cord of NHPs results, listed for orientation:
GSGFGPQTGQNQQT | 2.861
GSVLHSHAAQNQQT | 6.448
GNGLYAVSGQNQQT | 9.148
GSGQNQYLRLELQT | 0.000
GSVSTHSSGQNQQT | 3.446
GSGQNHRSADMQQT | 12.001
GSSHTQALGQNQQT | 0.143
GSGQSFQMHTNQQT | 9.770

Q: Need Fold enrichment over AAV9 in the spinal cord of NHPs, item GSGQNQQTMPQHKI
A: 2.394

Q: Could you do the same for GHMKGVTSGQNQQT , please?
A: 2.814

Q: Try GVVAHQPSGQNQQT next.
A: 0.152

Q: Please answer likewise for GSGLPDRNLQNQQT
A: 7.306

Q: And the next one, GSYGMAASGQNQQT ?
A: 10.052

Q: Another sequence: GSGQNQQTRLVDLT
A: 9.348

Q: Query GSLSTPSSGQNQQT next
A: 1.279

Q: What do we get for GSGVQHSLPQNQQT ?
A: 0.764

Q: Then this sequence: GMDHSRPSGQNQQT
A: 3.976

Q: Further, for GSGQTVVRIANQQT ?
A: 4.156

Q: And for GSGLIRTAAQNQQT ?
A: 8.339

Q: What about GSSTLVTIGKNQQT ?
A: 4.316

Q: One more sequence: GRVLHSHAGQNQQT
A: 0.826

Q: // query: GGLGSMSSGQNQQT
A: 1.405

Q: Similarly, GSGQLVTSGPNQQT ?
A: 5.271

Q: Then GSGQNRKPASFAQT ?
A: 0.000

Q: Try GSGLSGITMQNQQT next.
A: 14.796

Q: Same question, GSGQLSVPYDNQQT this time
A: 0.000

Q: Proceed to GVAFIGSSGQNQQT
A: 0.000

Q: And what about the sequence GSGQNQQTSPHNHT ?
A: 3.132

Measured values drawn from patent US20260250318A1 for this set.
